Form field: MIC (one value per entry).
Tested on: Mycobacterium tuberculosis variant bovis
Assay: Antitubercular activity against Mycobacterium bovis BCG incubated for 5 days by rezasurin dye based assay
Type: functional
Settings: 120 h, time 5 day

{"substance": "H-RLVRLVRLVRLVRLV-OH", "sign-qualifier": ">", "MIC / µM": 10}
{"substance": "H-VLGRVLGRVLGRVLGR-OH", "sign-qualifier": "=", "MIC / µM": 2.5}
{"substance": "H-LGRLLGRLLGRL-OH", "sign-qualifier": "=", "MIC / µM": 5}
{"substance": "H-GRLVGRLVGRLVGRLV-OH", "sign-qualifier": "=", "MIC / µM": 2.5}
{"substance": "H-RLVRLVRLVRLV-OH", "sign-qualifier": "=", "MIC / µM": 5}
{"substance": "H-KVLKVLKVLKVL-OH", "sign-qualifier": ">", "MIC / µM": 10}
{"substance": "H-RLRLRLRLRL-OH", "sign-qualifier": "=", "MIC / µM": 10}
{"substance": "H-KVLGKVLGKVLGKVLG-OH", "sign-qualifier": ">", "MIC / µM": 10}
{"substance": "H-GRLGRLGRLGRLGRL-OH", "sign-qualifier": "=", "MIC / µM": 5}
